# Experimental details: Analytical size exclusion chromatography (percent monomer)
# Assay type: physicochemical
# Settings: NEM-conjugated cysteine variants; SEC, Abs280 monomer region 5.5-6 minutes vs oligomer region 4-5.3 minutes
Observed property: Percent monomer (%)

T93C: cysteine variant of P54AR4-83v2 (SEQ ID NOS: 216 and 254); NEM and VC-MMAF conjugates (conjugate, NEM or vcMMAF conjugate; EGFR binding FN3 domain, NEM and VC-MMAF conjugates) MLPAPKNLVVSEVTEDSARLSWDDPWAFYESFLIQYQESEKVGEAIVLTVPGSERSYDLTGLKPGTEYTVSIYGVHNVYKDTNMRGLPLSAIFCT : 100
G42C (conjugate, left off: small tags and cut ends) LPAPKNLVVSEVTEDSARLSWDDPWAFYESFLIQYQESEKVCEAIVLTVPGSERSYDLTGLKPGTEYTVSIYGVHNVYKDTNMRGLPLSAIFTT : 87
V8C: cysteine variant of P54AR4-83v2 (SEQ ID NOS: 189 and 227); NEM and VC-MMAF conjugates (conjugate, NEM or vcMMAF conjugate; EGFR binding FN3 domain, NEM and VC-MMAF conjugates) MLPAPKNLCVSEVTEDSARLSWDDPWAFYESFLIQYQESEKVGEAIVLTVPGSERSYDLTGLKPGTEYTVSIYGVHNVYKDTNMRGLPLSAIFTT : 91
